Every entry's value here was drawn from PubChem BioAssay (NCI).

# System: TK-10 renal
# assay_notes: NCI tumour cell line growth inhibition, 48 h
Each entry below carries its recorded TGI.
parameter: TGI

# molecule, recorded_value
records = [
    ("CC(=O)OCC1OC(n2c3c(c(-c4ccc(Cl)cc4)c(C#N)c2=S)CCCC3)C(OC(C)=O)C(OC(C)=O)C1OC(C)=O (centres undefined)", "> 100 µM"),
    ("CN(/N=C/c1ccnc2ccccc12)c1c([N+](=O)[O-])cc([N+](=O)[O-])cc1[N+](=O)[O-]", "> 100 µM"),
    ("N#CC(C(=O)/C(=N\\NC(N)=O)C(C#N)c1ccccc1)c1ccccc1 (centres undefined)", "> 100 µM"),
    ("CCOC(=O)CC(NC(=O)c1[nH]cnc1/N=N/N(C)C)C(=O)OCC (centres undefined)", "> 100 µM"),
    ("COC(=O)C1=CC2C=CC(C1C(=O)OC)C1C(C(=O)OC)=C(C(=O)OC)C(C(=O)OC)=C(C(=O)OC)C21OC (centres undefined)", "> 100 µM"),
    ("O=c1c(Cl)c(Cl)cnn1CCCl", "30.3 µM"),
    ("CC(=O)[C@H]1CCC/C=C/[C@@H]2C[C@H](O)C[C@H]2[C@H](O)/C=C/C(=O)O1", "3.17 µM"),
    ("Cc1cc(Nc2cc(N3CCN(C)CC3)nc(/C=C/c3ccccc3)n2)n[nH]1", "> 5.11 µM"),
    ("COc1ccccc1/C=C/C1=NN(c2cccc(S(=O)(=O)O)c2)C2(C1)C(Cl)C(=O)N2c1nc2ccccc2s1 (centres undefined)", "> 100 µM"),
]

* * *

# Test system: BT-549 breast
# assay_notes: NCI tumour cell line growth inhibition, 48 h

# molecule, u, op, TGI
data = [
    ("CN(C)c1c(C2OC(CO)C(O)C2O)c(=O)c1=O (stereo not given)", "µM", ">", 100),
    ("Nc1nc(NCCCO)cc(=O)[nH]1", "µM", ">", 100),
    ("Cc1cc(-c2cc(O)ccc2Cl)cc2nnc(Nc3ccc(OCCN4CCCC4)cc3)nc12", "µM", "=", 3.16),
    ("Cn1cc(-c2cnn3c(N)c(Br)c(C4CCCNC4)nc23)cn1 (stereo not given)", "µM", "=", 32.5),
    ("O=C1O[C@H]2[C@H](OC(=O)c3cc(O)c(O)c(O)c3)[C@@H](OC(=O)c3cc(O)c(O)c4c3[C@@H]3C1=CC(=O)C(O)(O)C3(O)O4)[C@H](OC(=O)c1cc(O)c(O)c(O)c1)O[C@@H]2COC(=O)c1cc(O)c(O)c(O)c1 (stereo not given in full)", "µM", ">", 100),
    ("Nc1nc(/C=C\\c2ccccc2)nc(N2CCN(c3ccccc3)CC2)n1", "µM", ">", 100),
    ("COc1cccc(C2c3cc4c(cc3OC(NNS(=O)(=O)c3ccc(C)cc3)C2C)OCO4)c1OC (stereo not given)", "µM", "=", 36),
    ("O=[N+]([O-])c1ccc(-n2nc3ccc4c(no[n+]4[O-])c3n2)cc1", "µM", ">", 100),
    ("O=C(c1ccc(Cl)cc1)C(O)c1ccc(Cl)cc1 (stereo not given)", "µM", ">", 100),
    ("CC1=C(O)c2ccccc2C(=O)C1=O", "µM", "=", 99.3),
    ("CCN(CC)CCCC(C)N/C(=C1\\C(=O)NC(=O)\\C1=C(/NC(C)CCCN(CC)CC)c1cccc(OC)c1)c1cccc(OC)c1 (stereo not given)", "µM", "=", 3.82),
    ("CN1CCN(Cc2ccc(NC(=O)c3cncc(C#Cc4cnc(N)c5cccnc45)c3)cc2C(F)(F)F)CC1", "µM", ">", 50),
    ("CC(=O)N1N=C(c2ccc(Nc3nc(Nc4ccc(F)cc4)nc(Nc4ccc(F)cc4)n3)cc2)CC1c1ccc(N(C)C)cc1 (stereo not given)", "µM", "=", 54.8),
    ("CN1CCN(C(=O)COc2ccc(/C=C3\\CC4C5CC=C6CC(Cl)CCC6(C)C5CCC4(C)C3=O)cc2)CC1 (stereo not given)", "µM", ">", 100),
    ("CCCCc1ccc(Nc2nc(OC)c3ncn(C4CC(O)C(CO)O4)c3n2)cc1 (stereo not given)", "µM", "=", 38.1),
]

* * *

# Test system: U251 CNS
# assay_notes: NCI tumour cell line growth inhibition, 48 h
TGI values, listed per item

# compound, target_under_test, TGI
measured = [
    ("C=C1C(=O)O[C@H]2C1C[C@@H](OC(C)=O)/C(C)=C/CC[C@@]1(C)O[C@H]21 (some centres undefined)", "U251 CNS", "> 100 µM"),
    ("CC(=O)[CH-]C(=O)c1ccccc1.CC(=O)[CH-]C(=O)c1ccccc1.O=S(=O)([O-])c1cc([O-])c2c([O-])cc(S(=O)(=O)[O-])cc2c1.[Na+].[Zr+4]", "U251 CNS", "> 100 µM"),
    ("Fc1ccc2c3c([nH]c2c1)CCN(Cc1ccccc1)C3", "U251 CNS", "37.1 µM"),
    ("CC(C)(Cl)C(Br)CCC(Br)(CCl)C(Cl)CBr (centres undefined)", "U251 CNS", "> 10 µM"),
    ("O=C(CCN1CCCCC1)N1CCc2c([nH]c3ccccc23)C1c1cccnc1 (centres undefined)", "U251 CNS", "> 100 µM"),
    ("CC(=O)C1=C(O)C=C2Oc3c(C(=O)/C=C/c4cc(Cl)cc(Cl)c4)c(O)c(C)c(O)c3[C@]2(C)C1=O", "U251 CNS", "1.06 µM"),
    ("O=[N+]([O-])c1ccc(-n2nc3ccc4c(no[n+]4[O-])c3n2)cc1", "U251 CNS", "> 100 µM"),
    ("[B-][P+](CC[P+]1([B-])[C@@H](C)[C@@H](O)[C@H](O)[C@@H]1C)(c1ccccc1)c1ccccc1OC (some centres undefined)", "U251 CNS", "30.6 µM"),
    ("O=C(N/N=C/c1cc(Br)cc(Br)c1[O-])c1ccccc1O.O=C(N/N=C/c1cc(Br)cc(Br)c1[O-])c1ccccc1O.[Zn+2]", "U251 CNS", "2.01 µM"),
    ("NS(=O)(=O)c1cc(C(=O)O)c(O)c2ccccc12", "U251 CNS", "> 100 µM"),
    ("O=c1c(Cl)c(Cl)cnn1CCCl", "U251 CNS", "12.3 µM"),
    ("CC1=C(O)c2ccccc2C(=O)C1=O", "U251 CNS", "> 90.9 µM"),
    ("Cc1cc(C)c(-c2noc(-c3ccc(Cl)cc3)c2C2=NCCCN2)c(C)c1", "U251 CNS", "25.8 µM"),
    ("O=C1C2C3CC(C4C5C=CC(C5)C34)C2C2C3CC(C12)C1C2C=CC(C2)C31 (centres undefined)", "U251 CNS", "> 100 µM"),
    ("CC(=O)[CH-]C(=O)c1ccccc1.CC(=O)[CH-]C(=O)c1ccccc1.CC(=O)[CH-]C(=O)c1ccccc1.[Nd+3].[OH3+]", "U251 CNS", "> 100 µM"),
    ("O=C(NNC(=S)NC1CCCCC1)C12CC3CC(CC(C3)C1)C2", "U251 CNS", "> 100 µM"),
    ("CCOP(=O)(OCC)C(NC(=O)C(C(F)(F)F)C(F)(F)F)c1ccccc1 (centres undefined)", "U251 CNS", "> 100 µM"),
    ("CC(C)CC(N)C(=O)Nc1ccc2ccccc2c1 (centres undefined)", "U251 CNS", "> 100 µM"),
    ("COc1ccc(S(=O)(=O)N(CC(=O)O)c2ccccc2)cc1", "U251 CNS", "> 100 µM"),
    ("Cc1cc(Nc2nc(N[C@@H](C)c3ncc(F)cn3)ncc2Cl)n[nH]1", "U251 CNS", "> 100 µM"),
    ("CCCCCCCCCOCC(COP(=O)([O-])OCC[N+](C)(C)C)OC (centres undefined)", "U251 CNS", "> 100 µM"),
    ("N[C@@H]1CCN(c2c(F)cc3c(=O)c(C(=O)O)cn4c3c2Oc2cc3c(ccc5ccccc53)cc2-4)C1", "U251 CNS", "5.04 µM"),
    ("CCC(C)[C@@H](Nc1c(O)c2c(c(O)c1Cl)C(=O)C=CC2=O)C(=O)OC (some centres undefined)", "U251 CNS", "8.83 µM"),
    ("Cc1cccc2sc(-c3ccc(O)cc3)nc12", "U251 CNS", "39.1 µM"),
]

* * *

# System: RPMI-8226 leukemia
# assay_notes: NCI tumour cell line growth inhibition, 48 h
Reported log10 TGI values follow for various compounds
parameter: log10 TGI (log10 of the value in µM)

# compound, log10 TGI
measured = [
    ("CCN(Cc1cccc(Cl)c1)c1ccc(CO)c(Cl)c1", 1.45),
    ("Clc1cccc(C2N3CCCCC3[C@@H]3c4[nH]c5ccccc5c4CCN23)c1 (stereo partly specified)", 1.91),
    ("O=C(NCC1CCCO1)c1ccc(NC2=C(Cl)C(=O)N(Cc3ccccc3)C2=O)cc1 (stereo unspecified)", 1.10),
    ("Clc1ccc(CCN[C@H]2CCCC[C@H]2N2CCCC2)cc1Cl", 1.99),
    ("C=C(C(=O)OC)[C@@H]1C[C@@H](OC(C)=O)C2=C[C@H](C[C@@]3(C)O[C@@H]3C3=CC(C)=C(O3)[C@H]1OC(C)=O)OC2=O", 1.33),
    ("COC(=O)c1cc(NC(=O)Cc2c[nH]c3ccccc23)cn1C", 1.81),
    ("C=CCC(N[C@H](CO)c1ccccc1)c1cn(Cc2ccccc2Cl)c(=O)n(Cc2ccccc2Cl)c1=O (stereo partly specified)", 1.10),
    ("CCOP(=O)(OCC)C(NC(=O)C(C(F)(F)F)C(F)(F)F)c1ccccc1 (stereo unspecified)", 1.83),
    ("Cc1cc2nc3ccccc3n2c2nc(N)ccc12", 1.85),
    ("C=CCC(N[C@@H](CO)c1ccccc1)c1cn(C(=O)OCC)c2ccccc12 (stereo partly specified)", 1.72),
    ("COc1cccc(C2c3cc4c(cc3OC(NNS(=O)(=O)c3ccc(C)cc3)C2C)OCO4)c1OC (stereo unspecified)", 0.84),
    ("O=C1CCc2ccc(O)c(c2)Oc2ccc(cc2)C(Sc2ccccc2)CCO1 (stereo unspecified)", 1.56),
    ("COC(C)(C)/C=C/c1[nH]c2ccccc2c1CC(=O)NCCc1cn(C(c2ccccc2)(c2ccccc2)c2ccccc2)cn1", 0.83),
]
